assay details: growth inhibitors of tim10-1 mutant yeast, primary screen, luminescence, uHTS (AID 463190);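 further: mutant grown at 25 °C; 0% = DMSO wells with yeast and 100% = wells holding no yeast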
condition parameters: S. cerevisiae tim10-1 ts strain growth, BacTiter-Glo, 24 h; at 20 µM; hits give high values
About 7,300 (2.2%) of roughly 330,000 compounds were called active. Many of the other results were omitted from the sample, so actives are more common in it than they were.
readout kind: inhibition (%)
Numbers only; they are read as %.

input: What value of inhibition has been reported for the following molecule? S=C(NCC1COc2ccccc2O1)Nc1ccc(Br)cc1 (configuration not stated)
output: 7.9

input: // next record O=C1c2ccccc2C(=O)c2c1cccc2N1CCN(C/C=C/c2ccccc2)CC1
output: 23.3

input: Also NC(=O)NC(CC(=O)NNC(=O)c1ccccn1)c1ccc(Cl)cc1 (configuration not stated) ?
output: 8.52

input: What about CCN(CC)c1ccc(C2C3CCCCC3(O)CCN2CC(=O)Nc2ccccc2)cc1 (configuration not stated) ?
output: -17.2

input: Try this molecule next: O=C(c1ccco1)N1CCN(C(=O)c2cc(-c3ccccc3F)no2)CC1
output: 26

input: // repeat for O=C1COc2ccc(NC(=O)N3CCN(c4ccc(F)cc4)CC3)cc2N1 and report
output: -1.3

input: Similarly, CCOc1cc(C)ccc1OCc1nnc(SCC(=O)Nc2cccc(C(=O)O)c2)n1-c1ccccc1 ?
output: 4.93

input: Try this molecule next: O=C(NCCc1ccc(F)cc1)c1ccc(S(=O)(=O)N2CCCCC2)cc1
output: 41.8

input: Another: Cc1ccccc1NCC(=O)N/N=C\c1ccc([N+](=O)[O-])s1
output: 53.3

input: Same read-out for COc1cc(N2C(=O)CC3(CCCC3)CC2=O)cc(OC)c1OC ?
output: 11.2

input: // query: O=C(COC(=O)c1ccncc1)c1ccccc1
output: 22.8

input: Could you do the same for COc1nc(NCc2ccc(Cl)cc2)nc(OC)n1 , please?
output: 6.89

input: Repeat with CCOc1cc(C(=O)Nc2ncccn2)cc(OCC)c1OCC
output: 8.23

input: How about CC(C)(C)c1ccc(C(=O)NCc2nnc(SCC(=O)N3CCCc4ccccc43)n2-c2ccccc2)cc1 ?
output: 1.45

input: # repeat for COC(=O)c1ccc(CNC(=O)c2ccc(S(=O)(=O)N3CCCCCC3)cc2)cc1
output: 14.2

input: Field entry: COc1ccc(C2Nc3ccccc3C(=O)N2c2ccc(Cl)cc2)cc1Cn1cc([N+](=O)[O-])cn1 (configuration not stated)
output: 28

input: Consider next the molecule Cc1ccc(SCC2=NNC(=O)C2)cc1 in the same way.
output: 33.5

input: Now this one: Cc1cc(C)n(C(=O)CCNC(=O)c2ccccc2Cl)n1
output: -10.3

input: Subsequent entry: Cc1nn(CC(=O)NCCc2ccccc2)c(=O)c2cc3occc3n12
output: -16.4

input: Request: COc1ccc(/C(=N\O)c2nccc3cc(OC)c(OC)cc23)cc1OC
output: 17.4

input: Also check O=C(O)c1cccnc1NC1CCCC1
output: -10.6

input: Try O=C(CN1CCCCCC1)NCCN1C(=O)S/C(=C\c2ccccc2Cl)C1=O next.
output: 12.4

----------
assay details: growth inhibitors of tim10-1 mutant yeast, primary screen, luminescence, uHTS (AID 463190);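 further: mutant grown at 25 °C; 0% = DMSO wells with yeast and 100% = wells holding no yeast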
condition parameters: S. cerevisiae tim10-1 ts strain growth, BacTiter-Glo, 24 h; at 20 µM; hits give high values
Out of some 330,000 compounds screened, about 7,300 (2.2%) were called active. What follows is part of a selection rich in actives, with near analogues and random picks from the rest.
Kindly supply the reported inhibition values for the records listed here.
Dear colleague, please return just the value in %, with no unit written.

input: Item under review: CN1C/C(=C/c2cccs2)C(=O)/C(=C\c2cccs2)C1 . Reported inhibition?
output: 19.2

input: Can you check CCOP(=O)(OCC)C(Nc1cccc(C)c1)c1ccc(F)cc1 (centres undefined) next?
output: 20.8

input: Same question for COc1ccc(C(C#N)(CC(=O)O)c2cnccn2)cc1OC (centres undefined) please.
output: -2.88

input: Proceed to O=C(CN1CCCC1)Nc1sc2c(c1C(=O)Nc1ccccc1)CCCC2
output: 2.11
